Just for reference, PubChem BioAssay (NCI) is where these values come from.

Test system: MCF7 breast
Assay: NCI-60 one-dose screen, 48 h (100 = growth as untreated, 0 = no growth, -100 = all killed)
Details: 10 µM unless noted
The panel holds about 83,000 compounds, 20% with a hit somewhere; the sample as a whole holds those more often.
parameter: growth (%)
Supply the numeric figure in %, leaving out any unit text.

Using the record for O=S(=O)(Nc1cccc(Cl)c1)c1ccc(-c2cnc(C3CC3)o2)cc1 , report its growth.
14.2

Others:
Which growth value belongs to O=[N+]([O-])c1ccc(Sc2cccc[n+]2[O-])c2nonc12 ?
25.5

growth lookup needed for COc1cc(N=Nc2ccc(N)cc2)c(OC)cc1N=Nc1ccccc1.[Cl][Zn][Cl] , thanks.
85.6

I'd like to know its growth. The compound in question is Cc1ccc(CCC(=O)Nc2ncc(Cc3cc(Cl)ccc3Cl)s2)o1
13

Consider the compound shown here: COc1ccc(C2=NN(C(=O)c3cc(OC)c(OC)c(OC)c3)C(c3ccc(Cl)cc3)C2)cc1OC (stereo not given) What is its recorded growth?
18.7

Sample O=C1c2cccc(NCCN=Cc3cc([N+](=O)[O-])ccc3O)c2C(=O)c2c(NCCN=Cc3cc([N+](=O)[O-])ccc3O)cccc21 — what was its growth?
20.8

Requested field: growth. Item: COc1ccc(N=Nc2ccc(O)c(=O)cc2)cc1
5.65

Look at this compound and give its reported growth. CC1CC(C(C)(C)C)C(=O)C(C(C)(C)C)C1 (stereo not given)
108

Param item = COc1cccc(-c2nc3sccn3c2/C=C/C(=O)c2ccc(C(F)(F)F)cc2)c1 ; retrieve measured growth.
65

----------
Test system: SW-620 colon
Assay: NCI-60 one-dose screen, 48 h (100 = growth as untreated, 0 = no growth, -100 = all killed)
Settings: 10 µM unless noted
This is part of a sample that, as a whole, favours compounds with a hit. Of some 83,000 tested, about 20% had one in any assay. Activity calls are given as the source filed them. How the source made its calls: active means growth percent below 10; inactive means the rest.
Parameter: growth. Scope: all listed entries.

Below, each entry is followed by its recorded growth result.
Form field: reported growth of COc1ccc(NC(=O)CSc2nc(C)c(C(C)=O)n2-c2ccc(Cl)cc2)cc1
96.1% (inactive)

Consider the compound shown here: N=C1CCC(=N)c2c1c(O)c1ccccc1c2O What is its recorded growth?
101% (inactive)

Any idea what growth was measured for NCCCNc1nc2ccccc2c2c(=O)c3cccc(Cl)c3sc12 ?
-79.4% (active)

Request the reported growth associated with COc1cccc(C(=O)NCCNc2cc(-c3cn(-c4ccccc4)nc3-c3cccc(OC)c3)ccn2)c1
71.1% (inactive)

Which measured growth value corresponds to O=C1/C(=C\c2cccnc2)SC(=S)N1CCc1ccc(O)cc1 ?
44.4% (inactive)

Find the recorded growth belonging to c1ccc2cc3nc4cc5ccccc5cc4nc3cc2c1 and report it.
84.1% (inactive)

Quick one: growth for N#Cc1c(N)nc(NCCO)nc1-c1ccc(F)cc1 ?
99.8% (inactive)

Give its growth value. Item: CSc1n(Cc2ccc3ccccc3c2)c(C)c[n+]1Cc1ccc2ccccc2c1
0.772% (active)

Further cases:
Tell me the measured growth of CCOC(=O)C/C(C)=N\NC(=O)c1ccncc1 , please.
107% (inactive)

Quick one: growth of CCOC(=O)c1ccc(N2NC(=O)/C(=C/c3ccc([N+](=O)[O-])o3)C2=O)cc1 ?
106% (inactive)

Look at this compound and give its reported growth. N#CC1=C(NC=O)Oc2c(ccc3ccccc23)C1c1ccccc1 (stereo not given)
21.3% (inactive)
